Source: PubChem BioAssay (NCATS)

- System Tested: Cytochrome P450 1A2 (Homo sapiens)
- Assay Explanation: p450-cyp1a2 (AID 410);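 for activity change, negative = inhibition: -100% = full effect of reference inhibitor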
- Settings: recombinant CYP1A2, luciferin-ME demethylation, luminescence; series mostly up to 11.4 µM
Results filed as inconclusive are left out. The source made the active and inactive calls. Calls come from the whole dose curve.
Readout Label: activity change, negative = inhibition

>>> result("CC(C)[C@@H]1OC(=O)C=CC=CC=CC=CC=CC[C@@H](O)[C@H](C)[C@@H](O)C[C@H](O)C[C@H](O)C[C@H](O)C[C@H](O)C[C@H](O)C[C@H](O)C=C[C@@H]1C")
"-2.1% [at 2.29 µM] (inactive)"

Tell me activity change, negative = inhibition reported for `O=C(O)C1(C(=O)O)CCN(S(=O)(=O)c2ccccc2)CC1`
14% [at 2.29 µM] (inactive)

Answer with the recorded activity change, negative = inhibition of `O=C(O)CC1(CC(=O)O)Nc2ccccc2SC1=O` only.
2% [at 2.29 µM] (inactive)

Given the compound `Oc1ccc(Cl)cc1C=Nc1cnc2ccccc2c1` , write its reported activity change, negative = inhibition.
-13.2% [at 2.29 µM] (inactive)

Provide only the value of recorded activity change, negative = inhibition for `NCS(=O)(=O)O`
-5.6% [at 2.29 µM] (inactive)

Assign activity change, negative = inhibition to the following record: `O=C(Nc1ccc2ncccc2c1)Nc1ccc2ncccc2c1`
-28.5% [at 2.29 µM] (inactive)

Item NC(N)=N[C@@H]1C(O)[C@H](N=C(N)N)[C@@H](O)C(O)[C@H]1O (stereo not given in full) : provide activity change, negative = inhibition
-4.9% [at 2.29 µM] (inactive)

Recall and state the measured activity change, negative = inhibition for `O=C(Nc1ccc2oc(=O)c(C(=O)O)cc2c1)Oc1ccccc1` .
-15.3% [at 2.29 µM] (inactive)

Name the recorded activity change, negative = inhibition of the item `COc1ccc([C@@H](Nc2ccccn2)c2cc(C(C)(C)C)cc(C(C)(C)C)c2O)cc1` in your answer.
1.2% [at 2.29 µM] (inactive)

Identify activity change, negative = inhibition associated with the compound `CC(C)Cn1cnc2c(Sc3c([N+](=O)[O-])ncn3C)nc(N)nc21`
8.1% [at 2.29 µM] (inactive)

----------
- System Tested: Cytochrome P450 1A2 (Homo sapiens)
- Assay Explanation: p450-cyp1a2 (AID 410)
- Settings: recombinant CYP1A2, luciferin-ME demethylation, luminescence; series mostly up to 11.4 µM
Results filed as inconclusive are left out. Activity calls are given as the source filed them. The call rests on the fitted dose curve.
// allowed return values: yes (1) for active, no (0) for inactive

Please review the following examples before continuing.
>>> classification("C[C@@H](C(=O)O)c1ccc(C[C@@H]2CCCC2=O)cc1")
"no (0)"
>>> classification("O=[N+]([O-])c1ccccc1N=Nc1c(O)[nH]c2ccc(S(=O)(=O)O)cc12")
"yes (1)"
>>> classification("O=C(O)c1[nH]c2c([N+](=O)[O-])cc([N+](=O)[O-])cc2c1C(=O)O")
"yes (1)"

Could you kindly confirm the outcome this assay logged for `Cn1c(=S)c2[nH]c(SCc3cccnc3)nc2n(C)c1=O` ?
yes (1)

Just curious, what result did `Cn1c(=O)c2[nH]c(CCCCC(=O)O)nc2n(C)c1=O` get here?
yes (1)

Record lookup: outcome of this test for `OC[C@@H](O)CNc1ncnc2ccccc12` ?
no (0)

Record lookup: outcome of this test for `NCCSCCc1ccccc1` ?
yes (1)

Which outcome was assigned to `Cc1cnc(CNc2nc(-c3cccnc3)nc3ccccc23)cn1` in this test?
yes (1)

Recorded call for `c1ccc(C[n+]2cccc(-c3cc4ccccc4[nH]3)c2)cc1` ?
yes (1)

Outcome? `Oc1cccc2ccc(SSc3ccc4cccc(O)c4n3)nc12`
yes (1)

Called result for `C[C@@H]1CCCN(C[C@@H](O)CN2CCCc3ccccc32)C1`
no (0)

Query: recorded result category for `Cc1ccc(-c2nnc(-c3ccc4ccccc4c3)o2)cc1` in this test
yes (1)
